# Tested on: ATP;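 further: ATP exposure 15 min at 22 °C before imaging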
# MEASUREMENT DESCRIPTION: switch fluorescence ratio, 500 uM ATP over buffer (Cy3 cluster intensity, sum of 5 cycles each) (fold (ratio)); higher = stronger signal-on switching upon ATP binding; sequences stand for … in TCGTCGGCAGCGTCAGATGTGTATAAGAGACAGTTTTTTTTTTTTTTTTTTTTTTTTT…TC
# RUN PARAMETERS: aptamer strand: ATP DNA aptamer (quencher-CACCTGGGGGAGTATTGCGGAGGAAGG + anchor), 100 nM annealed; ATP concentration: 500 uM
Examples of sequences with documented switch fluorescence ratio follow.
# output: bare number, no unit

# switch fluorescence ratio lookup, item AATAGGGGAC 1.01

Data request, read-out switch fluorescence ratio, for TTTGTTTTC 1.02

Any idea what switch fluorescence ratio was measured for TGTTCAAAAC ? 1

Please look up its switch fluorescence ratio: GGAATTTGGA 0.983

Name the reported switch fluorescence ratio value associated with the sequence TTTTTTAGCC 1.02

For the sequence shown here, ATTTGGCGT , give the reported switch fluorescence ratio. 1.01

----------
# System: ATP;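 further: ATP exposure 15 min at 22 °C before imaging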
# MEASUREMENT DESCRIPTION: switch fluorescence ratio, 500 uM ATP over buffer (Cy3 cluster intensity, sum of 5 cycles each) (fold (ratio)); higher = stronger signal-on switching upon ATP binding; sequences stand for … in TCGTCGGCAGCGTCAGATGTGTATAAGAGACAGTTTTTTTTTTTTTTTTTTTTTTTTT…TC
# RUN PARAMETERS: aptamer strand: ATP DNA aptamer (quencher-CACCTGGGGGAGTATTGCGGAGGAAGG + anchor), 100 nM annealed; ATP concentration: 500 uM
Classify as follows. Reported switch fluorescence ratio greater than or equal to 1: MET. Reported switch fluorescence ratio below: NOT MET.

Before answering, review these 2 worked examples.
Kindly determine if switch fluorescence ratio recorded for TGTTTGGCTG is above or exactly 1. MET

Entry AGGATCATGT : is its switch fluorescence ratio no less than 1? NOT MET

Consider now this further sequence.
Please tell me: is the sequence AACCCGAGCC at or over 1 in terms of switch fluorescence ratio? MET

----------
# Test system: ATP;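 further: ATP exposure 15 min at 22 °C before imaging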
# MEASUREMENT DESCRIPTION: switch fluorescence ratio, 500 uM ATP over buffer (Cy3 cluster intensity, sum of 5 cycles each) (fold (ratio)); higher = stronger signal-on switching upon ATP binding; sequences stand for … in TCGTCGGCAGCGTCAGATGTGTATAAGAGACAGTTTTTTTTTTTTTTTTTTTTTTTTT…TC
# RUN PARAMETERS: aptamer strand: ATP DNA aptamer (quencher-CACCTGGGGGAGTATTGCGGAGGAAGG + anchor), 100 nM annealed; ATP concentration: 500 uM
Listed here: items and their measured switch fluorescence ratio.
No unit in the answer, only the number.

So what's the measured switch fluorescence ratio for this one? AACGGTGACG 1.03

***
Report switch fluorescence ratio for ATGTTAAACG please. 1.01

I am curious: what switch fluorescence ratio value has been reported for ATTCCCGGGG ? 1.06

Query (sequence): AAGGGGGCGA ; field requested: switch fluorescence ratio 0.982

GET /values?readout=switch fluorescence ratio&item= CCGGTTTGGC 1.06

Quick one: switch fluorescence ratio of TGATGTCTAG ? 0.967

What value of measured switch fluorescence ratio is listed for TCTGGGGGTG ? 1.02

Look up switch fluorescence ratio: CCGGGGATTC 1.36

----------
# Tested on: ATP;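 further: ATP exposure 15 min at 22 °C before imaging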
# MEASUREMENT DESCRIPTION: switch fluorescence ratio, 500 uM ATP over buffer (Cy3 cluster intensity, sum of 5 cycles each) (fold (ratio)); higher = stronger signal-on switching upon ATP binding; sequences stand for … in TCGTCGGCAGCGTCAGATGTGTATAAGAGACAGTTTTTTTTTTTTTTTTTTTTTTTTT…TC
# RUN PARAMETERS: aptamer strand: ATP DNA aptamer (quencher-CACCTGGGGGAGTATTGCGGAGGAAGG + anchor), 100 nM annealed; ATP concentration: 500 uM
Reported switch fluorescence ratio values follow for various sequences
Give your answer as a number; write no unit.

Given CTGTTGAATT , state its recorded switch fluorescence ratio. 1.01

Recorded switch fluorescence ratio for TATCCAGGGA , please? 1.03

Requested read-out: switch fluorescence ratio. Entry: TCGAAGGGTG 0.999

Dear colleague, I am looking for the recorded switch fluorescence ratio of the following sequence: AGAAAATTGT 1.01

If you can, please state the reported switch fluorescence ratio value of ACACGTCTGG . 1.01

Return reported switch fluorescence ratio; argument: AGCGGGGTCG 1

---
# input sequence: GGTCTACATG ; wanted: its switch fluorescence ratio 0.985

Entry TTTGATCTTG has what switch fluorescence ratio? 1.01

----------
Reported switch fluorescence ratio values follow for various sequences
# Test system: ATP;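 further: ATP exposure 15 min at 22 °C before imaging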
# MEASUREMENT DESCRIPTION: switch fluorescence ratio, 500 uM ATP over buffer (Cy3 cluster intensity, sum of 5 cycles each) (fold (ratio)); higher = stronger signal-on switching upon ATP binding; sequences stand for … in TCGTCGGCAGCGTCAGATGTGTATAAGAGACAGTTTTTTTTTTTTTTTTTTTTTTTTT…TC
# RUN PARAMETERS: aptamer strand: ATP DNA aptamer (quencher-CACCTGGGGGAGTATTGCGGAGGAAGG + anchor), 100 nM annealed; ATP concentration: 500 uM
// return just the number, without any unit appended

Worked set:
Entry ATGTGGGCAA : reported switch fluorescence ratio = ? 1.08

Which switch fluorescence ratio is reported for this sequence? TGACTATT 0.995

Any idea what its switch fluorescence ratio is? The sequence is CGGGTAGTGC 1.03

Note: attention shifts to another entry.
Suppose we examine the sequence TTTAGTGTAA ; what switch fluorescence ratio value has been reported? 0.966

----------
Entries annotated with measured switch fluorescence ratio
# System: ATP;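 further: ATP exposure 15 min at 22 °C before imaging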
# MEASUREMENT DESCRIPTION: switch fluorescence ratio, 500 uM ATP over buffer (Cy3 cluster intensity, sum of 5 cycles each) (fold (ratio)); higher = stronger signal-on switching upon ATP binding; sequences stand for … in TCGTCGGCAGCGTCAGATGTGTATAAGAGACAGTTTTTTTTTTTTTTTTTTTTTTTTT…TC
# RUN PARAMETERS: aptamer strand: ATP DNA aptamer (quencher-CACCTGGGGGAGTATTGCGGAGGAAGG + anchor), 100 nM annealed; ATP concentration: 500 uM
Write the number on its own, no unit after it.

Solved cases (5 shown):
# get_value(readout= switch fluorescence ratio, system= ATP) for TGGGGTGAAC 1

Lab note: need switch fluorescence ratio with ATP for entry TTCTGTGGAA , please look it up. 1.04

Record lookup: for ATP, what switch fluorescence ratio belongs to CCCAGGGT ? 1.54

Recall the recorded switch fluorescence ratio for TGGCTCCCGC with ATP and state it. 1.09

Please state recorded switch fluorescence ratio (tested on ATP) of TAAAAAGGAT 1.01

Next:
ATP / switch fluorescence ratio / GTTTACGGGC : value? 1.03

----------
Recorded switch fluorescence ratio values for a group of sequences are listed next.
# Test system: ATP;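 further: ATP exposure 15 min at 22 °C before imaging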
# MEASUREMENT DESCRIPTION: switch fluorescence ratio, 500 uM ATP over buffer (Cy3 cluster intensity, sum of 5 cycles each) (fold (ratio)); higher = stronger signal-on switching upon ATP binding; sequences stand for … in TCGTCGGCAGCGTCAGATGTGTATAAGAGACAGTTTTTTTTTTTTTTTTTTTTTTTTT…TC
# RUN PARAMETERS: aptamer strand: ATP DNA aptamer (quencher-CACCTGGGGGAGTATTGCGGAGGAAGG + anchor), 100 nM annealed; ATP concentration: 500 uM
Please give the numeric answer without any surrounding text.

# example entries with known answers
What measured switch fluorescence ratio is associated with ATATGCATGG on ATP? 0.969

Item: TATTACTTTG Test system: ATP Read-out: switch fluorescence ratio Value: ? 1.01

Request: switch fluorescence ratio, test system ATP, entry GTCAATGGGA 1

Further cases:
Could you share what switch fluorescence ratio was measured for AAGCTGAGAT , tested on ATP? 1.01

Fill in the recorded switch fluorescence ratio for this sequence, with ATP as test system: TGGTTGAAAA 0.875

----------
# Test system: ATP;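 further: ATP exposure 15 min at 22 °C before imaging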
# MEASUREMENT DESCRIPTION: switch fluorescence ratio, 500 uM ATP over buffer (Cy3 cluster intensity, sum of 5 cycles each) (fold (ratio)); higher = stronger signal-on switching upon ATP binding; sequences stand for … in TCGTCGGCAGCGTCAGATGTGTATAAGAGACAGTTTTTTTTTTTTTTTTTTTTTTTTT…TC
# RUN PARAMETERS: aptamer strand: ATP DNA aptamer (quencher-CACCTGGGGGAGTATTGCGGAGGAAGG + anchor), 100 nM annealed; ATP concentration: 500 uM
Listed here: items and their measured switch fluorescence ratio.

Could you share which switch fluorescence ratio value was measured for AGGGGGAGGA ? 1.01

What does the data say about its switch fluorescence ratio? Entry: TTTAAAAGA 1

Using the record for AGGAAGATCC , report its switch fluorescence ratio. 1

Fill in the blank: the reported switch fluorescence ratio of ATTGGTTGGT is ____. 0.978

Which switch fluorescence ratio value belongs to CATAGCTAGG ? 1

Which switch fluorescence ratio value is on record for TCCTGAAATT ? 0.987

Others:
Could you tell me which switch fluorescence ratio is on file for TGGTGAGTTT ? 0.984

Please report the recorded switch fluorescence ratio for CGAGTTGGAG . 1.01

Give its switch fluorescence ratio value. Item: CTAGTAAAGT 0.977
